biological target: mGlyT-1b (Mus musculus); construct: host or cells: Flp-in-CHO; assay: Glycine uptake inhibition assay (mGlyT-1b); assay type: cell-based; details: inhibition of [3H]-glycine uptake in Flp-in-CHO cells transfected with mGlyT-1b cDNA; 20 min preincubation at 22° C.; read-out: IC50 (μM) at GlyT-1
Sequence (P28571 1-651 isoform P28571-2): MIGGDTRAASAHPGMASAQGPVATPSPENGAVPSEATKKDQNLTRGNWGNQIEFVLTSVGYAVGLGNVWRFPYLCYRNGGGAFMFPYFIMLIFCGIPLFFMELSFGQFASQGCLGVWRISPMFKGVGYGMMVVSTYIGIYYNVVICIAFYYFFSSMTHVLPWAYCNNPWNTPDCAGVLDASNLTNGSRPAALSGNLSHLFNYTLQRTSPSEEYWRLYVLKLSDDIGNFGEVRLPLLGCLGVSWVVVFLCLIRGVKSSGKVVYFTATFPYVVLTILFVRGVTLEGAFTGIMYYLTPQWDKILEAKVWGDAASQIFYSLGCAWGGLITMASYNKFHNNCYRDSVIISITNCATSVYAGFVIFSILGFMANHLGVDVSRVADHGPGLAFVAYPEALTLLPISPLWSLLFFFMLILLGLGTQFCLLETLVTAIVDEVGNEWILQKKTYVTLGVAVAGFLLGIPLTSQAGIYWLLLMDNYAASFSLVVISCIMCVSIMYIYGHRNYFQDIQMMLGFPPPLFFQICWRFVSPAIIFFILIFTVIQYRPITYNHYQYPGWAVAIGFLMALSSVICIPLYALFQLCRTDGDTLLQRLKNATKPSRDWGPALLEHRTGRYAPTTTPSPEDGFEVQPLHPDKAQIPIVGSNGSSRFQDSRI
Property: IC50 (µM)
Reply numerically in µM, unit not repeated.

Answered cases to consult:
Compound | Unit Of Measurement | IC50
C[C@H](Oc1ccc(S(C)(=O)=O)cc1C(=O)N1Cc2cc(Cl)c(C3CCOC3)cc2C1)C(F)(F)F (mixture of isomers) [Example 359] | µM | 0.01
Cc1cc(-c2ccc3c(c2)CN(C(=O)c2cc(S(C)(=O)=O)ccc2O[C@@H](C)C(F)(F)F)C3)cs1 [Example 170] | µM | 0.048
CCSc1cc2c(cc1Cl)CN(C(=O)c1cc(S(C)(=O)=O)ccc1O[C@H](C)C(F)(F)F)C2 [Example 59] | µM | 0.036

Next:
query: Fill in: IC50 of C[C@H](Oc1ccc(S(C)(=O)=O)cc1C(=O)N1Cc2cc(F)c(N3CCOCC3)cc2C1)C(F)(F)F [Example 371] is ___
result: 0.006
